Ref: paper PMC12118597

# SYSTEM UNDER TEST: SARS-CoV-2 NSP3 macrodomain (Mac1) (Severe acute respiratory syndrome coronavirus 2)
# Assay type: binding
# TEST SETTINGS: crystal soak 10 mM, P43 crystal form
EXPERIMENTAL READOUT: PanDDA run, overall: Hit

[
  {
    "MOLECULE": "CCCC(CO)Nc1ncnc2[nH]ccc12 (stereo not drawn)",
    "EXPERIMENTAL READOUT": "PanDDA run, overall: Hit",
    "RESULT": "TRUE"
  },
  {
    "MOLECULE": "OCC(CC1CC1)Nc1ncnc2[nH]ccc12 (stereo not drawn)",
    "EXPERIMENTAL READOUT": "PanDDA run, overall: Hit",
    "RESULT": "TRUE"
  },
  {
    "MOLECULE": "O[C@@H]1CN(c2ncnc3[nH]ccc23)C[C@H]1F",
    "EXPERIMENTAL READOUT": "PanDDA run, overall: Hit",
    "RESULT": "TRUE"
  },
  {
    "MOLECULE": "O=C(O)C(F)(F)F.OCC1(Nc2ncnc3[nH]ccc23)CCC1",
    "EXPERIMENTAL READOUT": "PanDDA run, overall: Hit",
    "RESULT": "TRUE"
  },
  {
    "MOLECULE": "CN(C)C[C@@]1(O)CCCN(c2ncnc3[nH]ccc23)C1",
    "EXPERIMENTAL READOUT": "PanDDA run, overall: Hit",
    "RESULT": "TRUE"
  },
  {
    "MOLECULE": "O=C(O)C(F)(F)F.OC[C@@H](CCc1ccccc1)Nc1ncnc2[nH]ccc12",
    "EXPERIMENTAL READOUT": "PanDDA run, overall: Hit",
    "RESULT": "TRUE"
  },
  {
    "MOLECULE": "CC(C)CCC(CO)Nc1ncnc2[nH]ccc12.O=C(O)C(F)(F)F (stereo not drawn)",
    "EXPERIMENTAL READOUT": "PanDDA run, overall: Hit",
    "RESULT": "TRUE"
  },
  {
    "MOLECULE": "OC1CCCN(c2ncnc3[nH]ccc23)C1 (stereo not drawn)",
    "EXPERIMENTAL READOUT": "PanDDA run, overall: Hit",
    "RESULT": "TRUE"
  }
]

# PanDDA run, overall: Hit (molecule: OCC(COCc1ccccc1)Nc1ncnc2[nH]ccc12 (stereo not drawn) ) is TRUE

# PanDDA run, overall: Hit (molecule: CN(C)CC(CO)Nc1ncnc2[nH]ccc12 (stereo not drawn) ) is TRUE

# PanDDA run, overall: Hit (molecule: `CC(C)(C)[C@@H]1CCN(c2ncnc3[nH]ccc23)[C@H](CO)C1` ) is TRUE

# PanDDA run, overall: Hit (molecule: OCC(CC1CCCC1)Nc1ncnc2[nH]ccc12 (stereo not drawn) ) is TRUE

# PanDDA run, overall: Hit (molecule: Cc1ccccc1CC(CO)Nc1ncnc2[nH]ccc12 (stereo not drawn) ) is TRUE

# PanDDA run, overall: Hit (molecule: OCC1CC2(CCOCC2)CN1c1ncnc2[nH]ccc12 (stereo not drawn) ) is TRUE

# PanDDA run, overall: Hit (molecule: Cc1ccc(CC(CO)Nc2ncnc3[nH]ccc23)cc1 (stereo not drawn) ) is TRUE

# PanDDA run, overall: Hit (molecule: `O=C(O)C(F)(F)F.O[C@H]1CCC[C@@H]1Nc1ncnc2[nH]ccc12` ) is TRUE

# PanDDA run, overall: Hit (molecule: CC1(C)CCC(CO)N(c2ncnc3[nH]ccc23)C1 (stereo not drawn) ) is TRUE

# PanDDA run, overall: Hit (molecule: CC(c1ccccc1)C(CO)Nc1ncnc2[nH]ccc12 (stereo not drawn) ) is TRUE

# PanDDA run, overall: Hit (molecule: `OC[C@@H]1C[C@H](O)CN1c1ncnc2[nH]ccc12` ) is TRUE

# PanDDA run, overall: Hit (molecule: OCC1CC2(CCC2)CN1c1ncnc2[nH]ccc12 (stereo not drawn) ) is TRUE

# PanDDA run, overall: Hit (molecule: OCC(Nc1ncnc2[nH]ccc12)c1ccccc1 (stereo not drawn) ) is TRUE
